# System: SK-MEL-5
# procedure-text: NCI tumour cell line growth inhibition, 48 h
Activity calls are given as the source filed them. No stated cut-off is given here; in the data, active = GI50 up to about 1.1 µM and inactive = higher.
Labels: 1 (yes) = active, 0 (no) = inactive

compound | target | group
C[N+](C)(C)Cc1c(CC#N)[nH]c2ccccc12 | SK-MEL-5 | 0 (no)
O=c1c2c3c(sc2nc2n1N=C(c1ccc(Cl)cc1)CS2)CCCC3 | SK-MEL-5 | 0 (no)
CC1OC(CO)(n2cnc3c(N)ncnc32)C(O)C1O (stereo not given) | SK-MEL-5 | 0 (no)
COc1ccc(/C=C/[N+](=O)[O-])cc1 | SK-MEL-5 | 0 (no)
O=C(O)c1nc2ccccc2nc1Nc1ccc(F)cc1 | SK-MEL-5 | 0 (no)
O=C(O)CN1CCN(CC(=O)O)CCN(CC(=O)O)CC1 | SK-MEL-5 | 0 (no)
C=C1C(=O)OC2CCCCC3OC3C12 (stereo not given) | SK-MEL-5 | 0 (no)
CC1(c2ccc(Cl)cc2)CC(c2ccc(Cl)cc2)=C(C#N)C(=C(C#N)C#N)N1 (stereo not given) | SK-MEL-5 | 0 (no)
Cc1cc(N(CCC#N)CCC#N)ccc1/C=C(\N=[N+]=[N-])C(=O)NC(=O)COc1ccccc1 | SK-MEL-5 | 0 (no)
Cc1c(C(=O)O)n2c(S)nnc2c2ccccc12 | SK-MEL-5 | 0 (no)
CCOc1ccc(/N=N/C2C(=O)N(C(=O)CC(=O)Nc3ccc(C)cc3)N=C2C)cc1 (stereo not given) | SK-MEL-5 | 0 (no)
Cc1cc2c(c(/C=N/Cc3ccccc3)c1)OC1(C=C2)Oc2ccccc2C(=O)N1C (stereo not given) | SK-MEL-5 | 0 (no)
C/C=C1\NC(=O)[C@H](Cc2ccccc2)NC(=O)[C@@H](C(C)C)NC(=O)[C@@H]([C@@H](C)CC)NC(=O)[C@H](NC(=O)[C@H](NC(=O)[C@H](CCCN)NC(=O)[C@H]2CCCN2C(=O)[C@H](NC(=O)[C@@H](NC(=O)[C@@H](NC(=O)[C@H](NC(=O)CCCC(C)C)C(C)C)[C@@H](C)O)C(C)C)C(C)C)[C@@H](C)CC)[C@@H](C)OC(=O)[C@H](C(C)C)NC1=O | SK-MEL-5 | 1 (yes)
COc1nc(N)c(NC2OC(CO)C(O)C2O)c(=O)[nH]1 (stereo not given) | SK-MEL-5 | 0 (no)
Cc1cccc(CNNC(=O)c2cc[n+]([BH2-]C#N)cc2)c1 | SK-MEL-5 | 0 (no)
CC(C)(C)OC(=O)NC(Cc1c[nH]cn1)C(=O)N1CCCC1C(N)=O (stereo not given) | SK-MEL-5 | 0 (no)
O=c1c2ccccc2n2cnc3ccc(NCCNCCO)c1c32 | SK-MEL-5 | 0 (no)
N=C(N)N/N=C/c1nc2sccn2c1[N+](=O)[O-] | SK-MEL-5 | 0 (no)
O=c1c2ccccc2c2c3c1cccc3c1cccc3c(=O)c4ccccc4c2c31 | SK-MEL-5 | 0 (no)
COC[C@@H](/N=C/c1ccc([N+](=O)[O-])cc1)C(C)C | SK-MEL-5 | 0 (no)
O=C1C(Cl)N(c2ccccc2Cl)C1c1c[nH]c2ccccc12 (stereo not given) | SK-MEL-5 | 0 (no)
COC1/C=C/C(C)C(O)CC(O)/C=C/C(C)C(C(C)C(OC)C(C)CCC(=O)C(C)C(C/C=C/N(C)C=O)OC)OC(=O)/C=C/C=C(\C)CC(OC)CC2=CC(=O)O[C@@H](C(C)C(OC)C1)[C@H]2O (stereo not given in full) | SK-MEL-5 | 1 (yes)
O=C1COc2cc(NC(=S)Nc3ccccc3)ccc2N1 | SK-MEL-5 | 0 (no)
CC(=O)Oc1cc2oc(=O)cc(C)c2cc1OC(C)=O | SK-MEL-5 | 0 (no)
CCCCCc1c(Cl)nc(Cl)nc1Cl | SK-MEL-5 | 0 (no)
CC1(C)OC(=O)N(c2ccccc2)C12C=Cc1cc([N+](=O)[O-])ccc1O2 (stereo not given) | SK-MEL-5 | 0 (no)
C(=N\c1ccc(-c2nc3ccccc3s2)cc1)/c1ccc[nH]1 | SK-MEL-5 | 0 (no)
C[C@@]1(O)C2CC3CC1(c1ccccc1)CC(/C3=N/O)/C2=N\O (stereo not given in full) | SK-MEL-5 | 0 (no)
COc1ccc(OC)c(N(CN2C(=O)CCC2C(=O)O)C(C)=O)c1 (stereo not given) | SK-MEL-5 | 0 (no)
Nc1ccc(S(=O)(=O)Nc2ccc(Nc3c4ccccc4nc4ccccc34)cc2)cc1 | SK-MEL-5 | 1 (yes)
N#CC(C#N)[C@@H]1CCC=C(Sc2ccccc2)[C@H]1Sc1ccccc1 | SK-MEL-5 | 0 (no)
CCOC(=O)/C(=C\Nc1c(C)n(C)n(-c2ccccc2)c1=O)C(=O)c1ccccc1 | SK-MEL-5 | 0 (no)
NC1=C(Br)C(=O)c2ncccc2C1=O | SK-MEL-5 | 1 (yes)
COc1cc2ccnc(C#N)c2cc1OCc1ccccc1 | SK-MEL-5 | 0 (no)
CC1=NN(c2cccc(Cl)c2)C2(C1=Cc1cccs1)C(Cl)C(=O)N2c1nc2ccccc2s1 (stereo not given) | SK-MEL-5 | 0 (no)
S=C(N/N=C\C=N/NC(=S)N1CCCCCC1)N1CCCCCC1 | SK-MEL-5 | 0 (no)
COc1ccc2c(c1)c1nn(CCN3CCCCC3)c3ccc4c(=O)n(CCN(C)C)c(=O)n2c4c13 | SK-MEL-5 | 1 (yes)
O=C(N/N=C/c1cc(Cl)cc(Cl)c1O)c1ccccc1O | SK-MEL-5 | 0 (no)
COc1ccc(/C(Cl)=C(\C=N/O)c2ccc(OC)c(OC)c2)cc1OC | SK-MEL-5 | 0 (no)
S=c1nc(Nc2ccc(Cl)cc2)c2c3c(sc2[nH]1)CCCC3 | SK-MEL-5 | 0 (no)

====

# Test system: IGROV-1
# procedure-text: NCI tumour cell line growth inhibition, 48 h
The source made the active and inactive calls. Rule as the data show it: active = GI50 up to about 1.1 µM and inactive = higher.
Labels: active, inactive

compound | group
C=C(C)C12CC3CC(/C(=N/O)C(C1)/C3=N\O)[C@@]2(C)O (some centres undefined) | inactive
Cc1cc2c(c(/C=N/Cc3ccccc3)c1)OC1(C=C2)Oc2ccccc2C(=O)N1C (centres undefined) | inactive
CC(=O)OC1C(O)C(C)OC(OC(=O)C2CCC3C(C2)OC2(CC(OC(=O)/C=C/c4ccccc4)C(C)CO2)C32CO2)C1OC1OC(C)C(O)C(O)C1O (centres undefined) | active
COc1ccc(/C=C2\CCC(CN3CCOCC3)C2=O)cc1 (centres undefined) | inactive
COc1ccc(-n2nnnc2C2(Nc3ccccc3)CCN(Cc3ccccc3)CC2)cc1 | inactive
CC(=O)O[C@@H]1C[C@]2(C(=O)c3ccccc3)C(=O)C(=O)S[C@]12c1ccccc1 | inactive
NC(CSC1(c2ccc(Cl)cc2)c2ccccc2-c2ccccc21)C(=O)O (centres undefined) | inactive
O=C(NC(O)(C(F)(F)F)C(F)(F)F)c1ccccc1 | inactive
C1=NN2C(c3ccccc3)=NOC2C2C(c3ccccc3)=NOC12 (centres undefined) | inactive

====

# Test system: MOLT-4
# procedure-text: NCI tumour cell line growth inhibition, 48 h
The source made the active and inactive calls. Rule as the data show it: active = GI50 up to about 1.1 µM and inactive = higher.
Recorded GI50 by entry

molecule | GI50
O=C(/C=C/c1ccccc1Br)c1ccccc1 | 2.84 µM (inactive)
COc1cc(OC(C)=O)cc2c(OC(C)=O)ccc(OC(C)=O)c12 | > 100 µM (inactive)
NC1=NC(NCC2(CO)CCC2)=CC(OCC2(CO)CCC2)N1 (configuration not stated) | 65.9 µM (inactive)
CCCCC(=O)OC[n+]1cccc(-c2c(COC(=O)NC(C)C)c(COC(=O)NC(C)C)c3n2CCC3)c1 | 8.93 µM (inactive)
CC1(c2ccc(Cl)cc2)CC(c2ccc(Cl)cc2)=C(C#N)C(=C(C#N)C#N)N1 (configuration not stated) | 6.81 µM (inactive)
C/C=C1\NC(=O)[C@H](Cc2ccccc2)NC(=O)[C@@H](C(C)C)NC(=O)[C@@H]([C@@H](C)CC)NC(=O)[C@H](NC(=O)[C@H](NC(=O)[C@H](CCCN)NC(=O)[C@H]2CCCN2C(=O)[C@H](NC(=O)[C@@H](NC(=O)[C@@H](NC(=O)[C@H](NC(=O)CCCC(C)C)C(C)C)[C@@H](C)O)C(C)C)C(C)C)[C@@H](C)CC)[C@@H](C)OC(=O)[C@H](C(C)C)NC1=O | 12.1 µM (inactive)
COC(=O)C#Cc1ccc([N+](=O)[O-])cc1 | 0.659 µM (active)

====

# Test system: SF-295
# procedure-text: NCI tumour cell line growth inhibition, 48 h
Activity calls are given as the source filed them. Cut-off read from the data, not from the text of the source: active = GI50 up to about 1.1 µM and inactive = higher.
Recorded GI50 by entry
reported-endpoint: GI50

compound | reported-endpoint | result
CC(=O)NN/C=N/C(C#N)=C(\N)C#N | GI50 | > 100 µM (inactive)
O=C1COc2cc(NC(=S)Nc3ccccc3)ccc2N1 | GI50 | > 100 µM (inactive)
O=S1(=O)c2cnccc2N=C(NCc2cccc3ccccc23)N1c1ccccc1 | GI50 | 62.8 µM (inactive)
Cc1cccc(NC2=NC(=O)C(CC(=O)Nc3cccc(C)c3C)S2)c1 (stereo not drawn) | GI50 | > 100 µM (inactive)
CN(C)c1n/c(=N/Cc2ccncc2)ss1 | GI50 | > 90.8 µM (inactive)
Nc1ccc([C@H]2C(=O)N[C@H]3CCC[C@H]32)cc1 | GI50 | > 100 µM (inactive)
C/C=C1\NC(=O)[C@H](Cc2ccccc2)NC(=O)[C@@H](C(C)C)NC(=O)[C@@H]([C@@H](C)CC)NC(=O)[C@H](NC(=O)[C@H](NC(=O)[C@H](CCCN)NC(=O)[C@H]2CCCN2C(=O)[C@H](NC(=O)[C@@H](NC(=O)[C@@H](NC(=O)[C@H](NC(=O)CCCC(C)C)C(C)C)[C@@H](C)O)C(C)C)C(C)C)[C@@H](C)CC)[C@@H](C)OC(=O)[C@H](C(C)C)NC1=O | GI50 | 1.69 µM (inactive)
O=C(Nc1cccc2ccccc12)Oc1ccccc1C1CCCCC1 | GI50 | 16.3 µM (inactive)
O=C1Nc2ccc(Br)cc2/C1=N/N1C(=O)C(=O)N(C2CCCCC2)C1=S | GI50 | 3.16 µM (inactive)
CCOc1cc(C(c2c(O)c3ccccc3oc2=O)c2c(O)c3ccccc3oc2=O)ccc1OC | GI50 | 19.4 µM (inactive)
CCOc1ccc(/N=N/C2C(=O)N(C(=O)CC(=O)Nc3ccc(C)cc3)N=C2C)cc1 (stereo not drawn) | GI50 | 21.2 µM (inactive)
CC(=O)OC1C(O)C(C)OC(OC(=O)C2CCC3C(C2)OC2(CC(OC(=O)/C=C/c4ccccc4)C(C)CO2)C32CO2)C1OC1OC(C)C(O)C(O)C1O (stereo not drawn) | GI50 | 0.0776 µM (active)
O=C(O)c1ccc(Nc2nc3ccc(C(F)(F)F)cc3nc2C(=O)O)cc1 | GI50 | > 100 µM (inactive)
COc1cc(C(=O)C/C(CCC(=O)Nc2ccc(Cl)cc2C)=N/NC(=O)C(N)=O)ccc1O | GI50 | > 100 µM (inactive)
O=C(O)c1ccc([N+](=O)[O-])c2cc3cnccc3nc12 | GI50 | 43.5 µM (inactive)
COc1ccc(C(=O)C(CO)Oc2ccccc2OC)cc1OC (stereo not drawn) | GI50 | > 100 µM (inactive)
O=c1[nH]c(=O)n([C@@H]2O[C@H](CO)[C@@H](O)[C@@H]2F)cc1I | GI50 | > 100 µM (inactive)
O=C(O)CN1CCN(CC(=O)O)CCN(CC(=O)O)CC1 | GI50 | 37.5 µM (inactive)
